The reported measurements were obtained from paper PMC5648609.

system: hOCT3 stably transfected HEK293 cells; test: MTT cytotoxicity assay, hOCT3 cells; type: cell-based, human; settings: MTT, 72 h, hOCT3 HEK293 cells; mean±SD of six experiments
TC50 OCT3 by entry:
ATTRIBUTE_MEASURED: TC50 OCT3 (µM)

> print(dat)
                         smiles.input                    experimental.target  attribute.measured  quantitative.result
1  Cn1c2c(c3ccccc31)CC[N+](C)=C2.[I-]  hOCT3 stably transfected HEK293 cells           TC50 OCT3                 80.6
2       COc1ccc2c(c1)[nH]c1c(C)nccc12  hOCT3 stably transfected HEK293 cells           TC50 OCT3                 2.81
3      COc1ccc2c3c([nH]c2c1)C(C)=NCC3  hOCT3 stably transfected HEK293 cells           TC50 OCT3                 33.1

----------
TC50 OCT2 by entry:
system: hOCT2 stably transfected HEK293 cells; assay: MTT cytotoxicity assay, hOCT2 cells; format: cell-based, human; conditions: MTT, 72 h, hOCT2 HEK293 cells; mean±SD of six experiments
ATTRIBUTE_MEASURED: TC50 OCT2 (µM)

> print(dat)
                         smiles.input  quantitative.result
1      COc1ccc2c3c([nH]c2c1)C(C)=NCC3                 35.5
2       COc1ccc2c(c1)[nH]c1c(C)nccc12                 3.01
3  Cn1c2c(c3ccccc31)CC[N+](C)=C2.[I-]                  117

----------
test system: hOCT3 stably transfected HEK293 cells; experiment: MTT cytotoxicity assay, hOCT3 cells; type: cell-based, human; conditions: ratio of TC50 pcDNA5 to TC50 hOCT3 cells
Fold increase over pcDNA5 OCT3 by entry:
ATTRIBUTE_MEASURED: Fold increase over pcDNA5 OCT3 (fold)

> print(dat)
                                   compound              attribute.measured  quantitative.result
1            COc1ccc2c3c([nH]c2c1)C(C)=NCC3  Fold increase over pcDNA5 OCT3                 0.69
2  C[n+]1ccc2c(c1)[nH]c1ccccc12.[I-] [Norharmanium, 2-methyl-9H-β-carboline-2-ium, iodide]  Fold increase over pcDNA5 OCT3                 11.0
3                   C[n+]1ccc(-c2ccccc2)cc1  Fold increase over pcDNA5 OCT3                 10.9
4        Cn1c2c(c3ccccc31)CC[N+](C)=C2.[I-]  Fold increase over pcDNA5 OCT3                  1.6

----------
IC50 by entry:
target: hOCT3 (Homo sapiens); assay: ASP+-based fluorescence uptake inhibition assay, hOCT3
Sequence (O75751 whole entry): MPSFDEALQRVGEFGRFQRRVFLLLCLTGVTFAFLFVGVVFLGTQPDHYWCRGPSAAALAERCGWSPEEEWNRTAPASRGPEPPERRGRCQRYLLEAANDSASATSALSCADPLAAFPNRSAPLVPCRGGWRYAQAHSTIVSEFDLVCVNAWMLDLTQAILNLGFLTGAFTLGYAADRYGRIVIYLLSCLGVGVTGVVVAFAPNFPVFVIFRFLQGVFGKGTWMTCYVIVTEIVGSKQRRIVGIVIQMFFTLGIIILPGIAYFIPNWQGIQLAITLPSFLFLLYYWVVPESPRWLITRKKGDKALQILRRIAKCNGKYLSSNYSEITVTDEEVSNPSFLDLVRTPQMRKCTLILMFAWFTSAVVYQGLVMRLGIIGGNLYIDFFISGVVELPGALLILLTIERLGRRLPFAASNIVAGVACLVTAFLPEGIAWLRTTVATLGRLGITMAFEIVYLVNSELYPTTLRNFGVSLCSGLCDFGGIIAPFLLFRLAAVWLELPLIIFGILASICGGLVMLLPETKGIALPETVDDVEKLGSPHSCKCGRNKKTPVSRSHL
ATTRIBUTE_MEASURED: IC50 (µM)

> print(dat)
                                   molecule  attribute.measured  quantitative.result
1  C[n+]1ccc2c(c1)[nH]c1ccccc12.[I-] [Norharmanium, 2-methyl-9H-β-carboline-2-ium, iodide]                IC50                 13.1
2        Cn1c2c(c3ccccc31)CC[N+](C)=C2.[I-]                IC50                  7.3
3            COc1ccc2c3c([nH]c2c1)C(C)=NCC3                IC50                 4.76
4             COc1ccc2c(c1)[nH]c1c(C)nccc12                IC50                 17.7
